# tgt: human BTK (Homo sapiens (Human), UniProt Q06187)
# Sequence (Q06187 whole entry): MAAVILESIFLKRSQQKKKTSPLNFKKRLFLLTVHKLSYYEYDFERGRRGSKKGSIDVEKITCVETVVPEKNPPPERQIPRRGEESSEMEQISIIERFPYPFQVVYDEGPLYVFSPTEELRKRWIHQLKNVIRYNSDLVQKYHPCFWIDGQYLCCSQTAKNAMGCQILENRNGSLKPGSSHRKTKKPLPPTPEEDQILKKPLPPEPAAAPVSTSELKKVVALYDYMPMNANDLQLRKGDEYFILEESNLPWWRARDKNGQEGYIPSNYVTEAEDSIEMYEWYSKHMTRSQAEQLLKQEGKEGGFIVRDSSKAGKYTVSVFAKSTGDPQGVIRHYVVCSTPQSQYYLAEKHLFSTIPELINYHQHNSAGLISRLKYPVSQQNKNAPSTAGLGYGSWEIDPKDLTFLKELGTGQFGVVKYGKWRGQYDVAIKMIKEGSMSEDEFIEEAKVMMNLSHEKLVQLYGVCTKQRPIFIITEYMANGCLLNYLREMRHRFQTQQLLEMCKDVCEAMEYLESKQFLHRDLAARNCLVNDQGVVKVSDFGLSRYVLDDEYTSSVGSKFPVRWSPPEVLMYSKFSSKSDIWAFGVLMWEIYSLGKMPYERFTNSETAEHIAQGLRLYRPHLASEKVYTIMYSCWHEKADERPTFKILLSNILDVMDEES
pIC50: −log10 of the molar value.
outcome-measure: pIC50

Exam item: Record Cc1ccc(O)cc1-n1nc2c3c([nH]c(=O)c2c1N)COc1c(NC(=O)/C=C/CN(C)C)cccc1-3 [Example 2] : what is its pIC50 with human BTK (Homo sapiens (Human), UniProt Q06187)?
Marked response: > 8.00
